- Tested on: NCI-H322M lung
- test_method_notes: NCI-60 one-dose screen, 48 h
- condition_description: 10 µM
Compounds without any hit were thinned out: in the full panel of roughly 83,000, 20% have a hit. Activity calls are given as the source filed them. Rule for the calls: active = growth percent below 10; inactive = the rest.
Classes used: active, inactive

{"compound": "CC1=C[C@H]2O[C@@H]3C[C@H]4OC(=O)/C=C\\C=C\\[C@H]([C@@H](C)O)OCC/C(C)=C/C(=O)OC[C@@]2(CC1)[C@]4(C)[C@]31CO1", "category": "active"}
{"compound": "CN1C(=O)[C@]23SSC1(C)C(=O)N2[C@H]1Nc2ccccc2C1([C@@]12c4ccccc4N[C@@H]1N1C(=O)C4(C)SS[C@]1(C(=O)N4C)[C@H]2O)[C@@H]3O (some centres not stated)", "category": "active"}
{"compound": "CC1=C2C(=C[C@@](C)(C=O)[C@@H]2O)C(=O)[C@](C)(O)C12CC2", "category": "inactive"}
{"compound": "CC1=C2C(=C[C@@](C)(COC(=O)c3ccc(S(=O)(=O)F)cc3)[C@@H]2O)C(=O)[C@](C)(O)C12CC2", "category": "active"}
{"compound": "CC1=C2C(=O)[C@](C)(CO)C=C2C(=O)[C@](C)(O)C12CC2", "category": "inactive"}
{"compound": "Cc1ccc(CNc2nc3ccc(OC/C(=C/F)CN)cc3o2)cn1", "category": "inactive"}
{"compound": "CC1=C[C@H]2O[C@@H]3C[C@H]4OC(=O)/C=C\\C=C\\[C@H]([C@@H](C)O)OCC[C@@H](C)[C@H](O)C(=O)OC[C@@]2(CC1)[C@]4(C)[C@]31CO1", "category": "active"}

* * *

# key: entry, value: growth
- Tested on: HL-60(TB) leukemia
- test_method_notes: NCI-60 one-dose screen, 48 h (100 = growth as untreated, 0 = no growth, -100 = all killed)
- condition_description: 10 µM unless noted
This is part of a sample that, as a whole, favours compounds with a hit. Of some 83,000 tested, about 20% had one in any assay.

{"chemical_smiles": "Oc1ccc(CSc2nnc(-c3ccccc3)o2)c2cccnc12", "unit_annotation": "%", "growth": 7.7}
{"chemical_smiles": "C=C1C(=O)O[C@@H]2C[C@@H](C)/C=C\\C(=O)[C@](C)(OC(C)=O)C[C@H](OC(=O)/C(C)=C\\C)[C@@H]12", "unit_annotation": "%", "growth": -3.8}
{"chemical_smiles": "Cc1ccc(Cc2cnc(NC(=O)/C(C#N)=C/c3ccc(-c4ccc(Cl)cc4)o3)s2)cc1", "unit_annotation": "%", "growth": 88.5}
{"chemical_smiles": "CN1CCN(c2ccc(Nc3nc(NCCNS(=O)(=O)c4ccc(Cl)cc4)c4sccc4n3)cc2)CC1", "unit_annotation": "%", "growth": 80.1}
{"chemical_smiles": "CCN(CC)CCN1C(=O)c2c(c3c4cc(Br)ccc4[nH]c3c3ccc4ccccc4c23)C1=O", "unit_annotation": "%", "growth": -35}
{"chemical_smiles": "CN1CCN(CCNc2nc(-c3cccc(NS(=O)(=O)c4cccc5c(N(C)C)cccc45)c3)cs2)CC1", "unit_annotation": "%", "growth": 45}
{"chemical_smiles": "CCN(CC)CCOc1ccc(C(=C(c2ccccc2)C2CCCC2)c2ccc(OCCN(CC)CC)cc2)cc1", "unit_annotation": "%", "growth": -40.9}
{"chemical_smiles": "CN1CCc2c(sc3ncnc(N/N=C/c4ccc(Cl)c(Cl)c4)c23)C1", "unit_annotation": "%", "growth": -58.2}
{"chemical_smiles": "COc1ccc(C(C)=C(c2ccc(OCCN3CCCCCC3)cc2)c2ccc(OCCN3CCCCCC3)cc2)cc1", "unit_annotation": "%", "growth": -46.9}

* * *

# key: entry, value: growth
- System: HL-60(TB) leukemia
- test_method_notes: NCI-60 one-dose screen, 48 h (100 = growth as untreated, 0 = no growth, -100 = all killed)
- condition_description: 10 µM unless noted
The panel holds about 83,000 compounds, 20% with a hit somewhere; the sample as a whole holds those more often.

{"chemical_smiles": "O=S(=O)(NCCCNc1nccc(-c2[nH]c(-c3ccccc3)nc2-c2ccc(Cl)c(O)c2)n1)c1cccc2ccccc12", "growth [%]": 9.79}
{"chemical_smiles": "CCOc1c(C#N)c(Nc2ccc(S(N)(=O)=O)cc2)c(C#N)c2nnc(C)n12", "growth [%]": 114}
{"chemical_smiles": "CC[C@]12C=CCN3CC[C@@]4(c5ccc(OC)cc5N(C)[C@H]4[C@@](O)(C(=O)OC)[C@@H]1OC(=O)CCN1CCc4ccccc4C1)[C@@H]32", "growth [%]": 80.4}
{"chemical_smiles": "CC1(C)CC[C@]2(C(=O)N3CCOCC3)CC[C@]3(C)C(=CC[C@@H]4[C@@]5(C)C/C(=C/c6ccco6)C(=O)C(C)(C)[C@@H]5CC[C@]43C)[C@@H]2C1", "growth [%]": 57.2}
{"chemical_smiles": "Fc1ccc(-c2cc3nc(C(Cl)Cl)nc(-c4ccc(Cl)cc4)n3n2)cc1", "growth [%]": -4.23}
{"chemical_smiles": "COc1cccc(/C=C(/C)c2ccc3cccc(OC)c3[o+]2)c1O", "growth [%]": 99.7}
{"chemical_smiles": "O=C(CCn1c[n+](CC(=O)c2ccc(-c3ccccc3)cc2)c2ccccc21)Nc1cccc2cccnc12", "growth [%]": -42.3}
{"chemical_smiles": "CN(C)S(=O)(=O)c1ccc(-c2nc(C(Cl)Cl)nc3cc(-c4ccc(F)cc4)nn23)cc1", "growth [%]": 6.96}

* * *

- Tested on: HOP-62 NSCLC
- test_method_notes: NCI-60 one-dose screen, 48 h
- condition_description: 10 µM
About 83,000 compounds went through this panel and 20% of them were active in at least one assay; those are over-represented in the sample as a whole. Activity calls are given as the source filed them. Rule for the calls: active = growth percent below 10; inactive = the rest.
Classes used: 1 for active, -1 for inactive

{"compound": "C/C=C\\C(=O)O[C@@H]1CC2O[C@@H]3C=C(C)C(=O)C[C@]3(C)[C@]1(C)[C@]21CO1", "category": 1}
{"compound": "CC1=C2C(=O)[C@](C)(CO)C=C2C(=O)[C@](C)(O)C12CC2", "category": -1}
{"compound": "CC1=C2C(=C[C@@](C)(COC(=O)c3ccc(S(=O)(=O)F)cc3)[C@@H]2O)C(=O)[C@](C)(O)C12CC2", "category": 1}
{"compound": "CC(C)(O)/C=C/C(=O)[C@](C)(O)[C@H]1[C@H](O)C[C@@]2(C)[C@H]3CC=C4[C@@H](C[C@H](O)C(=O)C4(C)C)[C@]3(C)C(=O)C[C@]12C", "category": 1}
{"compound": "COC1[C@@H]2C[C@H]3C(C)(C)O[C@@](C/C=C(/C)C(=O)O)(C2=O)[C@]32Oc3c(CC=C(C)C)c4c(c(O)c3C(=O)[C@H]12)C=CC(C)(C)O4 (some centres not stated)", "category": 1}
{"compound": "C[C@@H]1C[C@H]2C(=O)O[C@@H](C)C(NC(=O)[C@H](Cc3cc(F)cc(F)c3)NC(=O)Nc3ccc(OS(=O)(=O)F)cc3)C(=O)N3CCC[C@H]3C(=O)N3CCO[C@H](C)[C@H]3C(=O)N[C@@H](CO)C(=O)N2C1 (some centres not stated)", "category": -1}
{"compound": "NC1CCc2cc(O)c(O)cc2C1 (configuration not stated)", "category": -1}

* * *

- Tested on: NCI-H23 lung
- test_method_notes: NCI-60 one-dose screen, 48 h
- condition_description: 10 µM
The panel holds about 83,000 compounds, 20% with a hit somewhere; the sample as a whole holds those more often. Calls of active or inactive are those of the source. How the source made its calls: active means growth percent below 10; inactive means the rest.
Classes used: active, inactive

{"compound": "CN(CCF)/N=N/c1nc[nH]c1C(N)=O", "category": "inactive"}
{"compound": "CC1=C(CN(O)C(N)=O)C2=C(C)C3(CC3)[C@@](C)(O)C(=O)C2=C1", "category": "active"}
{"compound": "CC1=C[C@H]2O[C@@H]3C[C@@H](O)[C@](C)([C@@]2(C)CC1)[C@@]31CO1", "category": "inactive"}
{"compound": "N#Cc1c(-n2c(Br)c(Br)c3cc(Br)ccc32)[nH]c2c(Br)cc(Br)cc12", "category": "active"}
{"compound": "CC1=C(CCC=NNC(N)=O)C2=C(C)C3(CC3)[C@@](C)(O)C(=O)C2=C1", "category": "active"}
{"compound": "C/C=C/CC(C)C(O)[C@H](NC(=O)[C@@H]1CCCN1C(=O)C(C)(C)NC(=O)CCCCCCC)C(=O)N[C@@](C)(CC)C(=O)N[C@@H](CCC(N)=O)C(=O)N[C@H](CCC(N)=O)C(=O)NC(C)(C)C(=O)NC(C)(C)C(=O)N[C@@H](CCC(N)=O)C(=O)N[C@H](CC(C)C)C(=O)N[C@H](CO)CC(C)C (stereo partly drawn)", "category": "inactive"}
{"compound": "CC(=O)O[C@@H]1C[C@H]2O[C@@H]3C=C(C)CC[C@]3(C)[C@]1(C)[C@]21CO1", "category": "active"}
{"compound": "NC1CCc2cc(O)c(O)cc2C1 (stereo not drawn)", "category": "inactive"}
